- Assay Name: qHTS assay to identify small molecule antagonists of the glucocorticoid receptor (GR) signaling pathway - cell viability counter screen (AID 720693); further: on the % scale 0 is the no-effect control and ±100 the full control effect; nearly all actives have a fitted effect of over 55% in size
- Run Conditions: GR-bla HeLa viability, CellTiter-Glo luminescence, 18 h, with 5 nM dexamethasone present; series mostly up to 58.5 µM
Records with an inconclusive call do not appear. Calls of active or inactive are those of the source. The call rests on the fitted dose curve; in most records, active means well fitted cell-killing curve with a large enough effect in the repeat runs; inconclusive means weak or mixed curves, or effect the other way; inactive means no such curve, though single readings can be large or run the other way.
Assign a class; possible classes are true (1) (active), false (0) (inactive)

As a guide, the following entries are already answered.
CN(C)CCN(Cc1ccccc1)c1ccccn1: false (0)
COc1ccc(C(=O)c2ccc(OC)cc2O)c(O)c1: false (0)
CCOC(=O)C(F)(F)F: false (0)
CCCCOC(=O)CCCCCCCC(=O)OCCCC: false (0)
COc1ccc(-c2nc3ccc(C4=NNC(=O)CC4C)cc3[nH]2)cc1 (stereo not given): false (0)
O=C(O)c1ccccc1Cl: false (0)

I'd appreciate the recorded outcome for CCc1cc(C2=C(C(=O)O)N(c3ccccc3C(F)(F)F)S(=O)(=O)c3ccccc32)cc2c1OCO2 from this test. false (0)

I'd appreciate the recorded outcome for OCCN1CCN(CCCN2c3ccccc3C=Cc3ccccc32)CC1 from this test. false (0)

I'd appreciate the recorded outcome for CC[N+]1(CC)CCC(=C(c2ccccc2)c2ccccc2)C1C (stereo not given) from this test. false (0)

I'd appreciate the recorded outcome for CC(COCCO)OCCO (stereo not given) from this test. false (0)

I'd appreciate the recorded outcome for CCOC(=O)Cc1cccc2ccccc12 from this test. false (0)

I'd appreciate the recorded outcome for O=C(O)c1ccc(-n2nc(-c3ccccc3O)nc2-c2ccccc2O)cc1 from this test. false (0)

I'd appreciate the recorded outcome for Nc1ccccc1S(=O)(=O)c1ccccc1 from this test. false (0)

I'd appreciate the recorded outcome for C=CCOC(=O)CCC1CCCCC1 from this test. false (0)

I'd appreciate the recorded outcome for O=C(Nc1ccccc1)c1ccccc1O from this test. false (0)

I'd appreciate the recorded outcome for O=C(O)c1nc(Cl)c(Cl)c(Cl)c1Cl from this test. false (0)

I'd appreciate the recorded outcome for COc1ccc(S(=O)(=O)N2C(=O)[C@@](c3ccccc3OC)(N3C[C@H](O)C[C@H]3C(=O)N(C)C)c3cc(Cl)ccc32)c(OC)c1 from this test. false (0)

I'd appreciate the recorded outcome for C[C@@H](c1ncncc1F)C(O)(Cn1cncn1)c1ccc(F)cc1F (stereo not given in full) from this test. false (0)

###

- Assay Name: qHTS assay for identifying genotoxic compounds that show differential cytotoxicity against isogenic chicken DT40 cell lines with known DNA damage response pathways - Rad54/Ku70 mutant cell line (AID 743015); further: nearly all actives have a fitted effect of over 60% in size
- Run Conditions: DT40 Rad54/Ku70 mutant viability, CellTiter-Glo, 40 h; series mostly up to 66.8 µM
Results filed as inconclusive are left out. Calls of active or inactive are those of the source. The call rests on the fitted dose curve; in most records, active means well fitted cell-killing curve with a large enough effect in the repeat runs; inconclusive means weak or mixed curves; inactive means no such curve, though single readings can be large or run the other way.
Assign a class; possible classes are Yes for active, No for inactive

I'd appreciate the recorded outcome for NCC(=O)CCC(=O)O from this test. No

I'd appreciate the recorded outcome for CCCCc1nc2cccnc2n1Cc1ccc(-c2ccccc2-c2nnn[nH]2)cc1 from this test. No

I'd appreciate the recorded outcome for O=P(O)(OCc1ccccc1)OCc1ccccc1 from this test. No

I'd appreciate the recorded outcome for CCCCCC[C@@H](O)C/C=C\CCCCCCCC(=O)OC from this test. No

I'd appreciate the recorded outcome for CCCCCCCCCOS(=O)(=O)O from this test. No

I'd appreciate the recorded outcome for CCOc1ccc(N)c([N+](=O)[O-])c1 from this test. No

I'd appreciate the recorded outcome for CC(=O)[O][Al][O]C(C)=O from this test. No

I'd appreciate the recorded outcome for CCCCCCCCCCO[C@@H]1O[C@H](CO)[C@@H](O)[C@H](O)[C@H]1O from this test. Yes

I'd appreciate the recorded outcome for CC(C)(C)OCC1CO1 (stereo unspecified) from this test. No

I'd appreciate the recorded outcome for COc1cc(C(=O)OCCCN2CCCN(CCCOC(=O)c3cc(OC)c(OC)c(OC)c3)CC2)cc(OC)c1OC from this test. Yes

###

- Tested on: thyroid hormone receptor (rat, GH3 cells)
- Assay Name: qHTS assay to identify small molecule agonists of the thyroid receptor (TR) signaling pathway (AID 743066); further: on the % scale 0 is the no-effect control and ±100 the full control effect
- Run Conditions: GH3.TRE-Luc cells, TR agonist luciferase, 24 h; series mostly up to 83.9 µM
Results filed as inconclusive are left out. Activity calls are given as the source filed them. Calls follow the shape of the full dose curve.
Assign a class; possible classes are active, inactive

Cc1ccccc1S(=O)(=O)O: inactive
C=CCOc1ccccc1OCC(O)CNC(C)C (centres undefined): inactive
C=C(C)C(=O)OCCOCC: inactive
O=C1CCC(=O)O1: inactive
NCc1ccccc1Sc1ccccc1CO: inactive

I'd appreciate the recorded outcome for CC(C)(C)Cl from this test. inactive

I'd appreciate the recorded outcome for CCCCCCCCO[C@@H]1O[C@H](CO)[C@@H](O)[C@H](O)[C@H]1O from this test. inactive

I'd appreciate the recorded outcome for CCCCO from this test. inactive

I'd appreciate the recorded outcome for CN(C)CCCN1c2ccccc2Sc2ccccc21 from this test. inactive

I'd appreciate the recorded outcome for Nc1cccc(S(=O)(=O)c2cccc(N)c2)c1 from this test. inactive

I'd appreciate the recorded outcome for Nc1c(CC(=O)O)cccc1C(=O)c1ccc(Br)cc1 from this test. inactive

I'd appreciate the recorded outcome for C/C(=C(\CCOP(=O)(O)O)SC(=O)c1ccccc1)N(C=O)Cc1cnc(C)nc1N from this test. inactive

I'd appreciate the recorded outcome for OC(C#CCN1CCCC1)(c1ccccc1)c1ccccc1 from this test. inactive

I'd appreciate the recorded outcome for c1ccc(-c2ccccn2)nc1 from this test. inactive

I'd appreciate the recorded outcome for O=C(NCCO[N+](=O)[O-])c1cccnc1 from this test. inactive

I'd appreciate the recorded outcome for O=C(O)c1ccc(S(=O)(=O)O)cc1C(=O)O from this test. inactive

I'd appreciate the recorded outcome for CC(=O)NO from this test. inactive

I'd appreciate the recorded outcome for CC1OC(=O)C(C)OC1=O (centres undefined) from this test. inactive

I'd appreciate the recorded outcome for OCCN1CCN(CCCN2c3ccccc3C=Cc3ccccc32)CC1 from this test. inactive

I'd appreciate the recorded outcome for C=C(C)C(=O)OCC from this test. inactive

I'd appreciate the recorded outcome for COc1cc2nc(N3CCN(C(=O)C4COc5ccccc5O4)CC3)nc(N)c2cc1OC (centres undefined) from this test. inactive

I'd appreciate the recorded outcome for O=C(OCCCCCCOC(=O)c1ccccc1)c1ccccc1 from this test. inactive

###

- Assay Name: qHTS assay to identify small molecule agonists of the retinoic acid receptor (RAR) signaling pathway (AID 1159553); further: on the % scale 0 is the no-effect control and ±100 the full control effect
- Run Conditions: C3RL4 RARE luciferase reporter, agonist, 6 h; series mostly up to 73.3 µM
Inconclusive results are not listed. Activity calls are given as the source filed them. Calls come from the whole dose curve; as a rule, active = well fitted activation curve with a large enough effect in the repeat runs; inconclusive = weak or mixed curves, or effect the other way; inactive = no such curve, though single readings can be large or run the other way.
Observation Type: activation

The following compounds have reported results that may help.
C#Cc1cccc(Nc2ncnc3cc(OCCOC)c(OCCOC)cc23)c1: inactive
CCCCCCOC(=O)NC(=N)c1ccc(NCc2nc3cc(C(=O)N(CCC(=O)OCC)c4ccccn4)ccc3n2C)cc1: inactive
Brc1c2ccccc2c(Br)c2ccccc12: -1.37% [at 8.36 µM] (inactive)
CCO[Si](CCCCl)(OCC)OCC: inactive
NCc1ccccc1Sc1ccccc1CO: inactive

Retrieve activation measured for CC(C)CC(=O)C1C(=O)c2ccccc2C1=O and print it. inactive

###

- Assay Name: qHTS assay to test for compound auto fluorescence at 535 nm (green) in HEK293 cell free culture (AID 720682); further: on the % scale 0 is the no-effect control and ±100 the full control effect
- Run Conditions: cell-free medium, green autofluorescence 485/535 nm, stronger effect = higher value; series mostly up to 91.3 µM
Calls of active or inactive are those of the source. Calls come from the whole dose curve; as a rule, active = well fitted curve in the direction sought with a large enough effect in the repeat runs; inconclusive = weak or mixed curves; inactive = flat fitted curve, though single readings scatter.
Observation Type: activity change

The following molecules have reported results that may help.
CCC(C)O (configuration not stated): inactive
CCO[Si](CCCCl)(OCC)OCC: inactive
CCN(CC)CCOC(=O)C(c1ccccc1)C1CCCCC1 (configuration not stated): inactive
CC(C)C[C@H]1C(=O)N2CCC[C@H]2[C@]2(O)O[C@](NC(=O)[C@@H]3C=C4c5cccc6[nH]c(Br)c(c56)C[C@H]4N(C)C3)(C(C)C)C(=O)N12: inactive
Cc1cccc(C)c1NC(=O)CN(CC(=O)O)CC(=O)O: inactive

Lab note: each molecule below needs its activity change filled in.
1. CC(C)(C)Cl
2. CCNc1cc(O)ccc1C

inactive
inactive

###

- Assay Name: Caspase-3/7 induction in HepG2 cells by small molecules, qHTS cell viability counter screen (AID 1346981); further: nearly all actives have a fitted effect of over 30% in size
- Run Conditions: CellTiter-Fluor fluorescence, 17 h; series mostly up to 92.4 µM
- Excerpt: U.S. Tox21 Program National Center for Advancing Translational Sciences [NCATS] NIH Chemical Genomics Center [NCGC] U.S. Environmental Protection Agency [EPA] National Institutes of Environmental Health Sciences [NIEHS] National Toxicology Program [NTP] U.S. Food and Drug Administration [FDA] Tox21 Assay Overview: Apoptosis is a process of programmed cell death and plays a central role in the development of multicellular organisms. […]
Results filed as inconclusive are left out. Activity calls are given as the source filed them. The call rests on the fitted dose curve; in most records, active means well fitted cell-killing curve with a large enough effect in the repeat runs; inconclusive means weak or mixed curves, or effect the other way; inactive means flat fitted curve, though single readings scatter.
Assign a class; possible classes are T for active, F for inactive

As a guide, the following entries are already answered.
CC(C)Cc1ccc(C(C)C(=O)OCc2ccccn2)cc1 (stereo not given): F
Nc1cccc(S(=O)(=O)c2cccc(N)c2)c1: F
CCOC(=O)COC(=O)c1cc(Oc2ccc(C(F)(F)F)cc2Cl)ccc1[N+](=O)[O-]: F
CCCCCCCCCOS(=O)(=O)O: F
C[N+]1(CC2COC(c3ccccc3)(C3CCCCC3)O2)CCCCC1 (stereo not given): F

I'd appreciate the recorded outcome for CCCCCCCCCCO[C@@H]1O[C@H](CO)[C@@H](O)[C@H](O)[C@H]1O from this test. F

I'd appreciate the recorded outcome for CC(C)(O)c1ccc(CNC(=O)c2cccnc2Oc2ccc(F)cc2)cc1 from this test. F

I'd appreciate the recorded outcome for CC(C)C[C@H]1C(=O)N2CCC[C@H]2[C@]2(O)O[C@](NC(=O)[C@@H]3C=C4c5cccc6[nH]c(Br)c(c56)C[C@H]4N(C)C3)(C(C)C)C(=O)N12 from this test. T

I'd appreciate the recorded outcome for CC(C)(COC(=O)c1ccccc1)COC(=O)c1ccccc1 from this test. F

Origin of measurements: PubChem BioAssay (Tox21)
